Study System: human glucagon receptor (human, UniProt P47871 26-477)
Sequence (P47871 26-477): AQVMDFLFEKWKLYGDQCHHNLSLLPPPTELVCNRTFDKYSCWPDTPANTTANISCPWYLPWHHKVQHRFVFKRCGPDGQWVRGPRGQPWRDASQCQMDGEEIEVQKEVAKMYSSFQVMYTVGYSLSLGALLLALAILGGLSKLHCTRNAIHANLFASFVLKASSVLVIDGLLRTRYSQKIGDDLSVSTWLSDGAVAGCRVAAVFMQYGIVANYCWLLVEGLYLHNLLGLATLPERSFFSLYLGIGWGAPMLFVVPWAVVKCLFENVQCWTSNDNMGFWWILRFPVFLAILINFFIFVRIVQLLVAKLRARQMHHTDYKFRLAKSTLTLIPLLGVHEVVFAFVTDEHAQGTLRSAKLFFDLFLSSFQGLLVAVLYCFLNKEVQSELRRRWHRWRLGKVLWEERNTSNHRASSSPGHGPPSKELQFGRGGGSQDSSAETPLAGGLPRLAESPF
Experimental Protocol: cell-based or functional assay
Endpoint Name: hGcgR cAMP Rel EC50 (µM)

binder="YXEGTXISDYSIXLDKKHQXDFVEXLLAGGPSSGAPPPS (Aib2; Iva6; αMeL13; K17((2-[2-(2-Amino-ethoxy)-ethoxy]-acetyl)2-(γ-Glu)-CO-(CH2)18-CO2H); Aib20; 4-Pal25; C-terminal amide) [Example 55]" result_qualifier=> value_reported=5
binder="YXEGTFISDYSILLDKKAQXDFVNWLLAQGPSSGAPPPS (D-Ala2; K17((2-[2-(2-Amino-ethoxy)-ethoxy]-acetyl)2-(γ-Glu)-CO-(CH2)16-CO2H); Aib20; C-terminal amide) [Example 2]" result_qualifier== value_reported=0.608
binder="YXEGTXISDYSIXLDKKHQXDFVEXLLEAGPSSGAPPPS (Aib2; Iva6; αMeL13; K17((2-[2-(2-Amino-ethoxy)-ethoxy]-acetyl)2-(γ-Glu)-CO-(CH2)18-CO2H); Aib20; 4-Pal25; C-terminal amide) [Example 88]" result_qualifier== value_reported=1.67
binder="YXEGTXISDYSIXLDKKHQXDFVEXLLEGGPSSGAPPPS (Aib2; Iva6; αMeL13; K17((2-[2-(2-Amino-ethoxy)-ethoxy]-acetyl)2-(γ-Glu)-CO-(CH2)18-CO2H); Aib20; 4-Pal25; C-terminal amide) [Example 74]" result_qualifier== value_reported=0.627
binder="YXEGTXISDYSIXLDXKHQXDFVEXLLEGGPSSGAPPPS (Aib2; Iva6; αMeL13; Orn16; K17((2-[2-(2-Amino-ethoxy)-ethoxy]-acetyl)2-(γ-Glu)-CO-(CH2)18-CO2H); Aib20; 4-Pal25; C-terminal amide) [Example 76]" result_qualifier== value_reported=1.2
binder="YXEGTXISDYSIXLDXKHQXDFVEXLLETGPSSGAPPPS (Aib2; Iva6; αMeL13; Orn16; K17((2-[2-(2-Amino-ethoxy)-ethoxy]-acetyl)2-(γ-Glu)-CO-(CH2)18-CO2H); Aib20; 4-Pal25; C-terminal amide) [Example 77]" result_qualifier== value_reported=2.66

Attribution: patent US20210032299A1
